Field: activity at 1 µM. Provide a value for each of the compounds that follow.
- Tested on: ZR-75-1 human mammary cancer cells
- method_notes: MTT test, proliferation of ZR-75-1
- Format: cell-based
- test_conditions: Homo sapiens; ZR-75-1, 10^-6 M, 72 h, control = 100%; read-out: level of proliferation
Remember to quote the unit after the number.

Task: Print ZR-75-1 human mammary cancer cells activity at 1 µM for C/C(=C\c1ccc2c(c1)C(C)(C)CCS2(=O)=O)c1ccc(-c2nnn[nH]2)cc1 .
Output: 99.9%

Task: Recall the reported activity at 1 µM of CC1=C(/C=C/C(C)=C/C=C/C(C)=C/C(=O)O)C(C)(C)CCC1 [CB16178, all-trans retinoic acid, reference compound] on ZR-75-1 human mammary cancer cells and write it down.
Output: 57.2%

Task: Provide ZR-75-1 human mammary cancer cells activity at 1 µM reading for CC1=C(/C=C/C(C)=C/C=C/C(C)=C/C(=O)Nc2ccc(O)cc2)C(C)(C)CCC1 [CB05764, reference compound] .
Output: 81.9%

====

- System: response element RARE of RARβ gene, endogenic retinoic receptors, HRLN lineage
- method_notes: HRLN transactivation (RARE-luciferase, stably transfected HeLa)
- Assay type: cell-based
property_measured: HRLN transactivation (in words)

Task: Assign HRLN transactivation (in words) to the following record: CC1(C)CCC(C)(C)c2cc(/C=C(\c3ccc(-c4nnn[nH]4)cc3)C(F)(F)F)ccc21
Output: very feebly active

Task: Report HRLN transactivation (in words), nothing else, for this compound: C/C(=C/c1ccc2c(c1)C(C)(C)CCC2(C)C)c1ccc(-c2nnn[nH]2)cc1
Output: very feebly active

====

- System: RARβ-ERcassette
- method_notes: Transactivation, chimerical receptor RARβ-ERcassette (HeLa)
- Format: cell-based
- test_conditions: 10^-8 M; TTNPB 10^-8 M = 100
property_measured: RAR-ERcassette RARβ transactivation (%)
I only need the number, in %, no unit after it.

Task: Please respond with reported RAR-ERcassette RARβ transactivation (system RARβ-ERcassette) for C/C(=C/c1ccc2c(c1)C(C)(C)CCC2(C)C)c1ccc(C(=O)O)cn1 [CB38416] .
Output: 10

Task: Give RARβ-ERcassette RAR-ERcassette RARβ transactivation for the following compound: CC1(C)CCC(C)(C)c2cc(/C=C(\c3ccc(-c4nnn[nH]4)cc3)C(F)(F)F)ccc21 [CB77402]
Output: 0

Task: Identify measured RAR-ERcassette RARβ transactivation obtained with RARβ-ERcassette for CC1=C(/C=C/C(C)=C/C=C/C(C)=C/C(=O)O)C(C)(C)CCC1 [CB16178, all-trans retinoic acid, reference compound] .
Output: 128

Task: Provide the reported RAR-ERcassette RARβ transactivation (system: RARβ-ERcassette) for Cc1cc2c(cc1C(=O)c1ccc(C(=O)O)cc1)C(C)(C)CCC2(C)C [LGD-CB14499, reference compound]
Output: 10

Task: Look up and report measured RAR-ERcassette RARβ transactivation (RARβ-ERcassette) for the following compound: CC(C=C/C=C(C)\C=C\C1=C(C)CCCC1(C)C)=CC(=O)O [CB13407, 9-cis retinoic acid, reference compound]
Output: 94

Task: Find the measured RAR-ERcassette RARβ transactivation of C/C(=C/c1ccc2c(c1)C(C)(C)CCC2(C)C)c1ccc(-c2nnn[nH]2)cc1 [CB92834] with RARβ-ERcassette as test system.
Output: 0

Task: # lookup: RARβ-ERcassette RAR-ERcassette RARβ transactivation, key = CC1(C)CCC(C)(C)c2cc(/C=C(\c3ccc(C(=O)O)cc3)C(F)(F)F)ccc21 [CB36493]
Output: 0

Task: For RARβ-ERcassette, give the measured RAR-ERcassette RARβ transactivation of the entry C/C(=C/c1ccc2c(c1)C(C)(C)CCC2(C)C)c1ccc(C(=O)O)cc1 [CB28628, reference compound]
Output: 88

====

Record form. Attribute: activity at 100 µM. Fill in for each entry.
- Tested on: A-427 human pulmonary cancer cells
- method_notes: MTT test, proliferation of A-427
- test_conditions: Homo sapiens, A-427, 72 h, read-out: level of proliferation
Express your answer in %, writing the number without its unit.

Task: Entry C/C(=C/c1ccc2c(c1)C(C)(C)CCC2(C)C)c1ccc(C(=O)O)cc1 [CB28628, reference compound] needs its activity at 100 µM filled in; supply it.
Output: 2.5

Task: Look up and state reported activity at 100 µM for C/C(=C\c1cc2c(cc1C)C(C)(C)CCC2(C)C)c1ccc(-c2nnn[nH]2)cc1 [CB40747]
Output: 1.7

Task: Please report the measured activity at 100 µM for C/C(=C/c1cc2c(cc1C)C(C)(C)CCC2(C)C)c1ccc(-c2nnn[nH]2)cc1 [CB61692]
Output: 0.6

Task: // fetch activity at 100 µM given entry CC(C=C/C=C(C)\C=C\C1=C(C)CCCC1(C)C)=CC(=O)O [CB13407, 9-cis retinoic acid, reference compound]
Output: 5.9

Task: Specify measured activity at 100 µM for C/C(=C/c1cc2c(cc1C)C(C)(C)CCC2(C)C)c1ccc(C(=O)O)cc1 [CB32706] .
Output: 0.8

Task: Please report the measured activity at 100 µM for C/C(=C/c1ccc2c(c1)C(C)(C)CCS2(=O)=O)c1ccc(C(=O)O)cc1 [CB72484]
Output: 182

Task: Fill in reported activity at 100 µM for this entry: C/C(=C/c1ccc2c(c1)C(C)(C)CCS2)c1ccc(C(=O)O)cc1 [CB41666]
Output: 7.6

Task: Given the molecule Cc1cc2c(cc1/C=C(\c1ccc(-c3nnn[nH]3)cc1)C(F)(F)F)C(C)(C)CCC2(C)C [CB63237] , write its reported activity at 100 µM.
Output: 4.1

====

- Test system: ERE-βGlob-Luc, MELN lineage (MCF-7)
- method_notes: Anti-oestrogenic effect, MELN lineage activated by estradiol
- Assay type: cell-based, human
- test_conditions: Homo sapiens, MCF7; 10^-7 M, cells activated by 10^-9 M estradiol; read-out: anti-oestrogenic effect, inhibition
property_measured: inhibition at 0.1 µM (%)
Record the value in %, omitting the unit from your answer.

Task: Please tell me the measured inhibition at 0.1 µM for CC1(C)CCC(C)(C)c2cc(/C=C(\c3ccc(C(=O)O)cc3)C(F)(F)F)ccc21 ; system: ERE-βGlob-Luc, MELN lineage (MCF-7).
Output: 0

Task: Look up ERE-βGlob-Luc, MELN lineage (MCF-7) data: inhibition at 0.1 µM of C/C(=C/c1ccc2c(c1)C(C)(C)CCC2(C)C)c1ccc(C(=O)O)s1 , then report it.
Output: 0

Task: Provide measured inhibition at 0.1 µM on ERE-βGlob-Luc, MELN lineage (MCF-7) for C/C(=C/c1ccc2c(c1)C(C)(C)CCC2(C)C)c1ccc(C(=O)O)cn1 please.
Output: 0

Task: Write down the reported inhibition at 0.1 µM (system: ERE-βGlob-Luc, MELN lineage (MCF-7)) of C/C(=C\c1ccc2c(c1)C(C)(C)CCC2(C)C)c1ccc(C(=O)Nc2nnn[nH]2)cc1
Output: 24

Task: Provide inhibition at 0.1 µM, system ERE-βGlob-Luc, MELN lineage (MCF-7), entry C/C(=C\c1cc2c(cc1C)C(C)(C)CCC2(C)C)c1ccc(C(=O)O)cc1
Output: 37

Task: Output reported inhibition at 0.1 µM of the molecule C/C(=C/c1ccc2c(c1)C(C)(C)CCC2(C)C)c1ccc(C(=O)O)cc1 [CB28628, reference compound] on ERE-βGlob-Luc, MELN lineage (MCF-7).
Output: 31

====

- Tested on: A549 human pulmonary cancer cells
- method_notes: MTT test, proliferation of A549
- Assay type: cell-based
- test_conditions: Homo sapiens; A549, 10^-8 M, 72 h, control = 100%; read-out: level of proliferation
property_measured: activity at 0.01 µM (%)
# number only, unit % dropped from output

Task: Give the reported activity at 0.01 µM for this molecule. C/C(=C/c1ccc2c(c1)C(C)(C)CCC2(C)C)c1ccc(-c2nnn[nH]2)cc1 [CB92834]
Output: 105

Task: Annotate the molecule C/C(=C\c1cc2c(cc1C)C(C)(C)CCC2(C)C)c1ccc(C(=O)O)cc1 [CB71802] with its measured activity at 0.01 µM.
Output: 80.9

Task: Give recorded activity at 0.01 µM. CC1(C)CCC(C)(C)c2cc(/C=C(\c3ccc(-c4nnn[nH]4)cc3)C(F)(F)F)ccc21 [CB77402]
Output: 93.1

Task: Write down activity at 0.01 µM measured for item Cc1cc2c(cc1/C=C(\c1ccc(C(=O)O)cc1)C(F)(F)F)C(C)(C)CCC2(C)C [CB62899]
Output: 131

Task: Determine its reported activity at 0.01 µM: C/C(=C/c1ccc2c(c1)C(C)(C)CCS2)c1ccc(C(=O)O)cc1 [CB41666]
Output: 94.5

Task: Give activity at 0.01 µM for COc1cc2c(cc1/C(C)=C/c1ccc(C(=O)O)cc1)C(C)(C)CCS2(=O)=O [CB77787]
Output: 118

Task: Find the measured activity at 0.01 µM of CC1(C)CCC(C)(C)c2cc(/C=C(\c3ccc(C(=O)O)cc3)C(F)(F)F)ccc21 [CB36493] and report it.
Output: 98.5

Task: Query activity at 0.01 µM for C/C(=C\c1ccc2c(c1)C(C)(C)CCC2(C)C)c1ccc(C(=O)Nc2nnn[nH]2)cc1 [CB73364]
Output: 156
